The measurements presented in this section are drawn from paper PMC4336329.

# Assayed Target: human ether-à-go-go-related gene (hERG) potassium channel (human, UniProt Q12809);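 further: peak tail current of the secondary pulse compared with the same well before compound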
# Sequence (Q12809 whole entry, looked up): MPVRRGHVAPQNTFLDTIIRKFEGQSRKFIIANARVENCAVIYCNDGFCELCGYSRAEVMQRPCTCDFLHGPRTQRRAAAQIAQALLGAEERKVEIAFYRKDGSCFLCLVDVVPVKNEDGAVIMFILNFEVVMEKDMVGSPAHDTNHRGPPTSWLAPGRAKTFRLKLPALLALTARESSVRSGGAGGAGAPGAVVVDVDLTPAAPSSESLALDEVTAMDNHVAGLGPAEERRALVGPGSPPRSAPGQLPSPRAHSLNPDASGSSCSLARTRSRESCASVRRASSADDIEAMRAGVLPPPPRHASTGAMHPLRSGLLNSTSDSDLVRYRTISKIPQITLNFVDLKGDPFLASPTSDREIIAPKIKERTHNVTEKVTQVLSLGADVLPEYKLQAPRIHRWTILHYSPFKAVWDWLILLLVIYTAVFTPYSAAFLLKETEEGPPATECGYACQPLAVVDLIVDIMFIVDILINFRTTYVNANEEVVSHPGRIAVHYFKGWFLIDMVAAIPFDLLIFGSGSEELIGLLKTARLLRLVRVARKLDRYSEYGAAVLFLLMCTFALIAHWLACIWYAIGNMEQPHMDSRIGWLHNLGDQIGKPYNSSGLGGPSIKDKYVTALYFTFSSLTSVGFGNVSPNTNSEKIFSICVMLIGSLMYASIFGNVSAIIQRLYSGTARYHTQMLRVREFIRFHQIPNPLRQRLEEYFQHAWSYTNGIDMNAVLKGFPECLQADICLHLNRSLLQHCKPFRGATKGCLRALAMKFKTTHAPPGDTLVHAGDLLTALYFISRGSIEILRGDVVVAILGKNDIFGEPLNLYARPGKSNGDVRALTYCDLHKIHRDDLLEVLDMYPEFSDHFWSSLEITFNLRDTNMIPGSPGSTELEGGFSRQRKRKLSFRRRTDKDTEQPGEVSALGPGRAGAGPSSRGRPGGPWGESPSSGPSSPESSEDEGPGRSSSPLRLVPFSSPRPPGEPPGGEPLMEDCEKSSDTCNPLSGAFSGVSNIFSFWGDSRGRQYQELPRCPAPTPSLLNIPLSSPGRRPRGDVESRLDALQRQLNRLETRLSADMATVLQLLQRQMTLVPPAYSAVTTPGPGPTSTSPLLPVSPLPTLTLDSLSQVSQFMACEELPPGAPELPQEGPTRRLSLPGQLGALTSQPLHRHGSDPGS
# Test Method Notes: primary screen, population patch clamp on CHO cells stably expressing hERG; higher = less effect of the substance
The whole screen tested about 310,000 compounds, of which about 14,000 (4.5%) showed an effect of 50% or more. Effects have a minus sign here. Only a selection was taken, and strong results are over-represented in it overall.
Parameter: hERG current change (%, negative = inhibition) at 10uM (%)
State just the number; it will be interpreted in %.

Compound | Readout Value
COc1ccc(CN2CCN(Cc3ccc4ccccc4c3)CC2)cc1OC.O=C(O)C(=O)O | -67
CC1(C)Cc2c(sc3c2C(=O)N(c2ccccc2)C2=NCCCN23)CO1 | 3.7
CCN(CC)CCn1c(=N)n(CC(O)COc2cccc(C)c2)c2ccccc21.Cl (centres unmarked) | -65.2
Cn1nnnc1SCC(=O)c1c(N)n(C)c(=O)n(C)c1=O | 18.3
Cc1ccc(-c2nn(-c3cc(Cl)ccc3[N+](=O)[O-])c(=O)c3ccccc23)cc1 | -22.1

Here is another compound to look at.
Can you share its hERG current change (%, negative = inhibition) at 10uM? I mean this compound: Cc1ccc(-c2nc(C#N)c(N3CCC(C(N)=O)CC3)o2)cc1
-23.7
